- SYSTEM_NAME: HIV-1 Protease (Human immunodeficiency virus type 1 group M subtype B (isolate HXB2) (HIV-1))
- PROCEDURE_SUMMARY: Enzymatic (FRET fluorometric) assay for determining the inhibition constant (Ki) of compounds targeting the HIV protease
- Type: biochemical
- CONDITION_CONTEXT: KIGRAPHIC ENZYME HIV-1 Protease, Ki determined graphically; read-out: […] ENZYME HIV-1 Protease
For each record, write down the corresponding Ki.
Please format your answer as a value with the unit trailing.

Lab note: `Cc1ccc(C(=O)N[C@@H](Cc2ccccc2Br)C(=O)NCCCC[C@@H](CO)N(CC(C)C)S(=O)(=O)c2ccc(N)cc2)cn1` gave Ki of 0.217 nM

Please fill in: Ki reported for `CC(C)CN([C@H](CO)CCCCNC(=O)[C@@H](NS(=O)(=O)c1cccs1)C(c1ccccc1)c1ccccc1)S(=O)(=O)c1ccc(N)cc1` = 0.541 nM

The recorded Ki for `CC(C)CN([C@H](CO)CCCCNC(=O)[C@H](Cc1ccccc1Br)NC(=O)c1cccc(O)n1)S(=O)(=O)c1ccc(N)cc1` is 0.27 nM

Memo: `CC(C)CN([C@H](CO)CCCCNC(=O)[C@@H](NC(=O)N1CCOCC1)C(c1ccccc1)c1ccccc1)S(=O)(=O)c1ccc2c(c1)CCO2` , reported Ki: 0.821 nM

Looking up `CC(C)CN([C@H](CO)CCCCNC(=O)[C@H](Cc1ccccc1Br)NC(=O)OCc1ccncc1)S(=O)(=O)c1ccc(N)cc1` , I see its Ki listed as 0.27 nM

----------
Kindly supply the reported pKi values for the records listed here.
- SYSTEM_NAME: HIV-1 Protease (Human immunodeficiency virus type 1 group M subtype B (isolate HXB2) (HIV-1))
- PROCEDURE_SUMMARY: Enzymatic (FRET fluorometric) assay for determining the inhibition constant (Ki) of compounds targeting the HIV protease
- Format: biochemical
- CONDITION_CONTEXT: KIGRAPHIC ENZYME HIV-1 Protease, Ki determined graphically; read-out: […] ENZYME HIV-1 Protease
Scale: negative log10 of molar concentration, which is what pKi denotes.

For reference, reported pKi for `Cc1ccc(C(=O)N[C@@H](Cc2ccccc2Br)C(=O)NCCCC[C@@H](CO)N(CC(C)C)S(=O)(=O)c2ccc(N)cc2)cc1O` stands at 9.65

Lab book: pKi of `CC(C)CN([C@H](CO)CCCCNC(=O)[C@@H](Cc1ccccc1Br)NC(=O)c1ccc2c(c1)OCO2)S(=O)(=O)c1ccc(N)cc1` noted as 10.30

Sure, the documented pKi for `Cc1cccnc1C(=O)N[C@@H](Cc1ccccc1Br)C(=O)NCCCC[C@@H](CO)N(CC(C)C)S(=O)(=O)c1ccc(N)cc1` is 9.57

----------
Record form. Attribute: Ki. Fill in for each entry.
- SYSTEM_NAME: HIV-1 Protease (Human immunodeficiency virus type 1 group M subtype B (isolate HXB2) (HIV-1), UniProt P04585)
- PROCEDURE_SUMMARY: Enzymatic (FRET fluorometric) assay for determining the inhibition constant (Ki) of compounds targeting the HIV protease
- Assay type: biochemical
- CONDITION_CONTEXT: calculated Ki; read-out: KI-CALC ENZYME HIV-1 Protease

Record `Cc1ncccc1C(=O)N[C@@H](Cc1ccccc1Br)C(=O)NCCCC[C@@H](CO)N(CC(C)C)S(=O)(=O)c1ccc(N)cc1` , field Ki: < 3.8 nM

Data point: `CC(C)CN([C@H](CO)CCCCNC(=O)[C@H](CC1CCCCC1)NC(=O)c1cccnc1)S(=O)(=O)c1ccc(N)cc1` ; Ki = < 3.8 nM

Noted for `CC(C)CN([C@H](CO)CCCCNC(=O)[C@H](CC1=C(Br)CCC=C1)NC(=O)N1CCOCC1)S(=O)(=O)c1ccc2c(c1)OCCO2` : its Ki reads < 3.8 nM

GET /value?item= `Cc1ccccc1C[C@H](NC(=O)c1ccncc1)C(=O)NCCCC[C@@H](CO)N(CC(C)C)S(=O)(=O)c1ccc(N)cc1` &field=Ki returns < 3.8 nM

# compound `CC(C)CN([C@H](CO)CCCCNC(=O)[C@@H](NC(=O)NCc1ccncc1)C(c1ccccc1)c1ccccc1)S(=O)(=O)c1ccc(N)cc1` ; its Ki = < 3.8 nM

What the record says about `CC(C)CN([C@H](CO)CCCCNC(=O)[C@@H](NS(=O)(=O)c1cccs1)C(c1ccccc1)c1ccccc1)S(=O)(=O)c1ccc(N)cc1` : Ki is < 3.8 nM

`Cc1nn(C)c(Cl)c1S(=O)(=O)N[C@@H](Cc1ccc2ccccc2c1)C(=O)NCCCC[C@@H](CO)N(CC(C)C)S(=O)(=O)c1ccc(N)cc1` has a reported Ki of 26.2 nM

The compound listed as `Cc1ncccc1C(=O)N[C@@H](Cc1ccccc1Cl)C(=O)NCCCC[C@@H](CO)N(CC(C)C)S(=O)(=O)c1ccc(N)cc1` shows Ki equal to < 3.8 nM

For reference, reported Ki for `COC(=O)N[C@@H](Cc1ccccc1Br)C(=O)NCCCC[C@@H](COP(=O)(O)O)N(CC(C)C)S(=O)(=O)c1ccc(N)cc1` stands at > 300 nM

Ki recorded for this compound, `Cc1ccc(C(=O)N[C@@H](Cc2ccccc2C)C(=O)NCCCC[C@@H](CO)N(CC(C)C)S(=O)(=O)c2ccc(N)cc2)cc1O` , is < 3.8 nM

Lab note: measured Ki of `COC(=O)N[C@@H](Cc1ccccc1F)C(=O)NCCCC[C@H](CO)N(CC(C)C)S(=O)(=O)c1ccc2c(c1)CCO2` was 9.2 nM

The compound `COC(=O)N[C@@H](Cc1ccccc1F)C(=O)NCCCC[C@@H](COP(=O)(O)O)N(CC(C)C)S(=O)(=O)c1ccc(N)cc1` showed Ki equal to > 300 nM

// Ki lookup, compound = `COC(=O)N[C@@H](CC1CCCCC1)C(=O)NCCCC[C@@H](CO)N(CC(C)C)S(=O)(=O)c1ccc(N)cc1` , result: 5.3 nM

----------
- SYSTEM_NAME: HIV-1 Protease (Human immunodeficiency virus type 1 group M subtype B (isolate HXB2) (HIV-1))
- PROCEDURE_SUMMARY: Enzymatic (FRET fluorometric) assay for determining the inhibition constant (Ki) of compounds targeting the HIV protease
- Type: biochemical
- CONDITION_CONTEXT: calculated Ki; read-out: KI-CALC ENZYME HIV-1 Protease
pKi: −log10 of the molar value.
RESULT_TYPE: pKi

Documented pKi of CC(C)CN([C@H](CO)CCCCNC(=O)[C@H](Cc1ccc2ccccc2c1)NS(=O)(=O)c1ccc(C#N)cc1)S(=O)(=O)c1ccc(N)cc1 [EX 53] : 7.43

Record COC(=O)N[C@@H](Cc1ccccc1F)C(=O)NCCCC[C@H](CO)N(CC(C)C)S(=O)(=O)c1ccc2c(c1)OCCN2C [EX 14] . Reported pKi: 7.12

Entry Cc1ncccc1C(=O)N[C@@H](Cc1ccccc1Br)C(=O)NCCCC[C@@H](COP(=O)(O)O)N(CC(C)C)S(=O)(=O)c1ccc(N)cc1 [EX. 2] ; pKi = < 6.52

For record COC(=O)N[C@@H](Cc1ccccc1Cl)C(=O)NCCCC[C@@H](COP(=O)(O)O)N(CC(C)C)S(=O)(=O)c1ccc(N)cc1 [EX 5] the listed pKi is 7.04

Memo: Cc1ccc(C(=O)N[C@@H](Cc2ccccc2C)C(=O)NCCCC[C@@H](CO)N(CC(C)C)S(=O)(=O)c2ccc(N)cc2)cn1 [EX 21] , reported pKi: > 8.42

Briefly, pKi measured for COC(=O)N[C@@H](Cc1ccc(Br)cc1)C(=O)NCCCC[C@@H](COP(=O)(O)O)N(CC(C)C)S(=O)(=O)c1ccc(N)cc1 [EX 6] : < 6.52

Lab note: Cc1ccc(C(=O)N[C@@H](Cc2ccccc2Br)C(=O)NCCCC[C@@H](CO)N(CC(C)C)S(=O)(=O)c2ccc(N)cc2)cn1 [EX. 40] gave pKi of > 8.42

get_value(item= CC(C)CN([C@H](CO)CCCCNC(=O)[C@H](Cc1ccc2ccccc2c1)NS(=O)(=O)c1cn(C)cn1)S(=O)(=O)c1ccc(N)cc1 [EX 54] , readout=pKi) returns 7.94

pKi in this record for Cc1ccccc1C[C@H](NC(=O)c1cccc(C)c1O)C(=O)NCCCC[C@@H](CO)N(CC(C)C)S(=O)(=O)c1ccc(N)cc1 [EX 23] : > 8.42

The molecule listed as CC(C)CN([C@H](CO)CCCCNC(=O)[C@@H](NC(=O)N1CCOCC1)C(c1ccccc1)c1ccccc1)S(=O)(=O)c1ccc2c(c1)CCO2 [EX 34] shows pKi equal to > 8.42

Memo: Cc1cccnc1C(=O)N[C@@H](Cc1ccccc1Br)C(=O)NCCCC[C@@H](CO)N(CC(C)C)S(=O)(=O)c1ccc(N)cc1 [EX 36] , reported pKi: > 8.42

Briefly, pKi measured for CC(C)CN([C@H](CO)CCCCNC(=O)C(Cc1ccccc1Br)NC(=O)c1ccncc1)S(=O)(=O)c1ccc(N)cc1 (stereo partly shown) [EX. 42] : > 8.42

// pKi lookup, molecule = Cc1ccc(C(=O)N[C@@H](Cc2ccccc2Br)C(=O)NCCCC[C@@H](CO)N(CC(C)C)S(=O)(=O)c2ccc(N)cc2)cc1O [EX 37] , result: > 8.42

Entry COC(=O)N[C@H](C(=O)NCCCC[C@@H](CO)N(Cc1cccnc1)S(=O)(=O)c1ccc(N)cc1)C(c1ccccc1)c1ccccc1 [EX. 33] ; pKi = > 8.42

pKi recorded for this molecule, CC(C)CN([C@@H](CCCCNC(=O)[C@H](Cc1ccccc1Br)NC(=O)c1ccncc1)COP(=O)(O)O)S(=O)(=O)c1ccc(N)cc1 [EX 3] , is < 6.52

pKi recorded for this molecule, CC(C)CN([C@H](CO)CCCCNC(=O)[C@H](Cc1ccccc1Cl)NC(=O)c1ccncc1)S(=O)(=O)c1ccc(N)cc1 [EX 29] , is > 8.42

Measured pKi, CC(C)CN([C@H](CO)CCCCNC(=O)[C@H](Cc1ccccc1Br)NC(=O)N1CCOCC1)S(=O)(=O)c1ccc2c(c1)CCO2 [EX 17] : > 8.42

response.value for COC(=O)N[C@H](C(=O)NCCCC[C@H](CO)N(CC(C)C)S(=O)(=O)c1ccc2c(c1)N(C)CCO2)C(c1ccccc1)c1ccccc1 [EX 35] (field: pKi) = > 8.42

Record Cc1ccc(C(=O)N[C@@H](CC2CCCCC2)C(=O)NCCCC[C@@H](CO)N(CC(C)C)S(=O)(=O)c2ccc(N)cc2)cn1 [EX 26] . Reported pKi: > 8.42

// sample CC(=O)N[C@H](C(=O)NCCCC[C@@H](C(N)=O)N(CC(C)C)S(=O)(=O)c1ccc(N)cc1)C(c1ccccc1)c1ccccc1 [EX. 8] , its pKi was > 8.42

# molecule COC(=O)N[C@H](C(=O)NCCCC[C@H](CO)N(CC(C)C)S(=O)(=O)c1cccc2cccnc12)C(c1ccccc1)c1ccccc1 [EX 27] ; its pKi = > 8.42

pKi recorded for this molecule, Cc1ccccc1C[C@H](NC(=O)c1cccnc1)C(=O)NCCCC[C@@H](CO)N(CC(C)C)S(=O)(=O)c1ccc(N)cc1 [EX 20] , is > 8.42
